Measured GI50 accompanies every entry in the list below.
System: SW-620
Protocol text: NCI tumour cell line growth inhibition, 48 h
Calls of active or inactive are those of the source. Cut-off read from the data, not from the text of the source: active = GI50 up to about 1.1 µM and inactive = higher.

What does the data say about its GI50? Entry: COc1ccc(C2CC(c3c(O)ccc4ccccc34)=NN2c2ccc([N+](=O)[O-])cc2[N+](=O)[O-])cc1OC (stereo unspecified)
39.9 µM (inactive)

What does the data say about its GI50? Entry: CC1OC1C(=O)P(=O)(O)O (stereo unspecified)
> 100 µM (inactive)

What does the data say about its GI50? Entry: COc1ccc(CC2COc3cc(O)cc(O)c3C2=O)cc1O (stereo unspecified)
3.56 µM (inactive)

----------
Tested on: SF-268
Protocol text: NCI tumour cell line growth inhibition, 48 h
The source made the active and inactive calls. Cut-off read from the data, not from the text of the source: active = GI50 up to about 1.1 µM and inactive = higher.
// allowed return values: active, inactive

Reference set, count: 2
CCCCCCCCOCC1S(=O)(=O)OCCOS1(=O)=O	inactive
O=C1C=CC(=O)c2c1cc1ccccc1c2O	inactive

Field: outcome | Entry: "N#CCCN(CCCCN(CCC#N)C(=O)Nc1ccccc1)C(=O)Nc1ccccc1"
inactive

Field: outcome | Entry: "COc1ccc2nc3cc(Cl)ccc3c(NCCCCCC(=O)NC(COc3ccc4ccc5cccnc5c4n3)COc3ccc4ccc5cccnc5c4n3)c2c1"
inactive

Field: outcome | Entry: "Cc1cccc(N2C(=O)/C(=C/c3ccc(N(CCC#N)CCC#N)cc3C)N=C2c2cc([N+](=O)[O-])ccc2Cl)c1"
inactive

Field: outcome | Entry: "NN=C(S)Nc1cccc(Cl)c1"
inactive

Field: outcome | Entry: "CC(=O)OCCn1cnc2nc(Nc3ccccc3)nc(Cl)c21"
inactive

Field: outcome | Entry: "Oc1cccc(-c2nc3ccccc3s2)c1"
inactive

Field: outcome | Entry: "Cc1c[nH]c(C(=O)O)c1-c1cccn1-c1ccc(Cl)cc1[N+](=O)[O-]"
inactive

Field: outcome | Entry: "C=COC(=O)N[C@H]1CCc2cc(OC)c(OC)c(OC)c2-c2ccc(SC)c(=O)cc21"
active

Field: outcome | Entry: "O=C1OC(=O)c2c1c(-c1ccccc1)cn2-c1ccc(Cl)cc1"
inactive

Field: outcome | Entry: "O=C(O)c1nc2cc(Cl)ccc2[nH]c1=O"
inactive

Field: outcome | Entry: "NS(=O)(=O)c1cc2c(cc1Cl)N=C(CCC(=O)O)NS2(=O)=O"
inactive

Field: outcome | Entry: Clc1cc(Cl)cc(C2SCc3nc4ccccc4n32)c1 (centres undefined)
inactive

Field: outcome | Entry: "N/N=C(\Cc1ccccc1)NN=C(N)N"
inactive

Field: outcome | Entry: O=C(c1nc2ccc([N+](=O)[O-])cc2nc1O)C(O)c1ccc2c(c1)OCO2 (centres undefined)
inactive

Field: outcome | Entry: "COc1cc(CNc2ccc3nc4n(c(=O)c3c2)CCCCC4)cc(OC)c1OC"
inactive

Field: outcome | Entry: CC(C)N(C(=O)C12C3C4C1C1C2C3C41C(N)=O)C(C)C (centres undefined)
inactive

Field: outcome | Entry: "CC(C)(C)c1cc(C(=O)Nc2cc(Br)c(Br)cc2S(N)(=O)=O)cc(C(C)(C)C)c1O"
inactive

----------
Tested on: U-251
Protocol text: NCI tumour cell line growth inhibition, 48 h
Active and inactive are the calls of the source. No stated cut-off is given here; in the data, active = GI50 up to about 1.1 µM and inactive = higher.
// allowed return values: y = active, n = inactive

Reference set, count: 3
O=C(O[C@@H](/C=C/c1ccccc1)P1(=O)N(Cc2ccccc2)[C@@H]2CCCC[C@H]2N1Cc1ccccc1)c1ccccc1	n
O=C1/C(=C/c2ccc([N+](=O)[O-])cc2)Sc2scc(-c3cccc([N+](=O)[O-])c3)[n+]21	n
Cc1cc(N(CCC#N)CCC#N)ccc1/C=C1\N=C(c2cc([N+](=O)[O-])ccc2Cl)N(NC(=O)c2ccc(/N=C\c3ccc(N(CCC#N)S(C)(=O)=O)cc3C)cc2)C1=O	n

Field: outcome | Entry: "CN(c1ccc(C(=O)c2ccc(N(C)S(C)(=O)=O)cc2)cc1)S(C)(=O)=O"
n

Field: outcome | Entry: "CO/C(=N\N=Cc1ccccc1)c1ccncc1"
n

Field: outcome | Entry: c1ccc2c(c1)OC(N1CCCC1)c1cnc(N3CCOCC3)nc1-2 (stereo not drawn)
n

Field: outcome | Entry: "C=COC(=O)N[C@H]1CCc2cc(OC)c(OC)c(OC)c2-c2ccc(SC)c(=O)cc21"
y

Field: outcome | Entry: "CC(C)N/C(=N\C#N)NS(=O)(=O)c1cnccc1Nc1ccc(Cl)cc1"
n

----------
Test system: NCI-H226
Protocol text: NCI tumour cell line growth inhibition, 48 h
Active and inactive are the calls of the source. Cut-off read from the data, not from the text of the source: active = GI50 up to about 1.1 µM and inactive = higher.
Measured GI50 accompanies every entry in the list below.

Solved cases (3 shown):
CN(C)CC(CO)(CN(C)C)CN(C)C	> 100 µM (inactive)
CCN(CC)CCn1c2ccccc2c(=O)c2c(OC)ccc(OC)c21	60.3 µM (inactive)
O=C1CCC(=O)c2c1c(O)c1ccncc1c2O	20.6 µM (inactive)

Attention now turns to another entry.
What does the data say about its GI50? Entry: COc1c(CC(C)O)c2c3c(CC(C)O)c(OC)c(=O)c4c(O)cc5c(c6c(cc(O)c(c1=O)c62)OCO5)c43 (configuration not stated)
2.29 µM (inactive)

----------
Measured GI50 accompanies every entry in the list below.
Tested on: UACC-257
Protocol text: NCI tumour cell line growth inhibition, 48 h
The source made the active and inactive calls. No stated cut-off is given here; in the data, active = GI50 up to about 1.1 µM and inactive = higher.

CNC(=O)NCNC(=O)NC	> 100 µM (inactive)
COc1ccc(/C=C/c2cnc3ccccc3n2)cc1OC	> 100 µM (inactive)
COc1ccc(CCc2ccc(O)c(C(=O)O)c2)cc1OC	> 100 µM (inactive)
Cc1n2nc(N)sc2n[n+]1Cc1ccccc1	> 100 µM (inactive)

What does the data say about its GI50? Entry: "O=C1/C(=C/c2ccc([N+](=O)[O-])cc2)Sc2scc(-c3cccc([N+](=O)[O-])c3)[n+]21"
5.32 µM (inactive)

----------
Tested on: UACC-62
Protocol text: NCI tumour cell line growth inhibition, 48 h
Calls of active or inactive are those of the source. Cut-off read from the data, not from the text of the source: active = GI50 up to about 1.1 µM and inactive = higher.
// allowed return values: active, inactive

Reference set, count: 6
C=COC(=O)N[C@H]1CCc2cc(OC)c(OC)c(OC)c2-c2ccc(SC)c(=O)cc21	active
CC(C)(C)c1ccc(OCC(=O)O)c(Cl)c1	inactive
N#CCc1nc(-c2ccccc2)n[nH]1	inactive
COc1ccc(P2(=S)OC(C)(C)C(C)(C)O2)cc1	inactive
O=C(CCC(NC(=O)OCc1ccccc1)C(=O)OCc1ccccc1)Nc1cccc(OCc2ccccc2)c1 (centres undefined)	inactive
COc1cc2c(cc1OC)C(=O)N(NC1=NCCN1)C2=O	inactive

Field: outcome | Entry: "C[C@]12CC[C@H](O)C=C1CC[C@@H]1[C@@H]2CC[C@]2(C)C(=N/O)/C(=C/c3ccncc3)C[C@@H]12"
inactive

Field: outcome | Entry: "CCOC(=O)c1cn2c(n1)sc1cc(Cl)cc(Cl)c12"
inactive

Field: outcome | Entry: "COc1ccc(/C=C/c2cnc3ccccc3n2)cc1OC"
inactive

----------
Tested on: SK-OV-3
Protocol text: NCI tumour cell line growth inhibition, 48 h
Active and inactive are the calls of the source. Cut-off read from the data, not from the text of the source: active = GI50 up to about 1.1 µM and inactive = higher.
Measured GI50 accompanies every entry in the list below.

Oc1cccc(-c2nc3ccccc3s2)c1	27.9 µM (inactive)
NN=C(S)Nc1cccc(Cl)c1	> 100 µM (inactive)
Cc1ccc(/N=N/c2ccc(N(CCC#N)CCC#N)cc2C)c(Br)c1	10.3 µM (inactive)
Cn1nc(-c2ccccc2)c(C(=O)/C=C/c2ccccc2)c(N2CCCC2)c1=O	22.7 µM (inactive)
CC(C)(C)C(=O)N(C(=S)OCc1ccccn1)c1ccccc1	> 100 µM (inactive)

What does the data say about its GI50? Entry: "CC1=NC(C)(C)N(O)C1(C)C"
> 100 µM (inactive)

What does the data say about its GI50? Entry: "CCOC(=O)C(=O)Nc1ccc([N+](=O)[O-])cc1C#N"
> 100 µM (inactive)

What does the data say about its GI50? Entry: "CN(C)/C=C/c1ccnc2c1C(=O)c1ccccc1C2=O"
44 µM (inactive)

----------
Below are GI50 values measured for HCT-15.

Solved cases (3 shown):
CCO[C@]12C[C@H](OC)[C@@]3(O)CC(C1[C@H]3OCc1ccccc1)C13C4C2[C@H](OC)C1[C@](COC)(CN4CC)[C@H](O)C[C@@H]3OC (stereo partly drawn)	> 100 µM
CC(C)(C)OC(=O)N1CCC2(CC1)C(=O)NCN2c1ccccc1	> 100 µM
COc1cc(OC)c(OC)cc1/C=N/N=C(\N)NO	> 100 µM

Observed GI50 on HCT-15 for CC(C)CC(NC(=O)OC(C)(C)C)C(=O)Nc1ccc(Nc2nc(F)nc(-c3c4ccccc4cn3C)n2)cc1 (stereo not drawn) , please.
> 68.9 µM

Observed GI50 on HCT-15 for "COC(=O)C(C)(C)[C@@H]1OC(=O)N(S(=O)(=O)c2c(C)cc(C)cc2C)[C@H]1C(C)C" , please.
> 100 µM

Observed GI50 on HCT-15 for "CCN(CC)CCn1c2ccccc2c(=O)c2c(OC)ccc(OC)c21" , please.
57.5 µM

Observed GI50 on HCT-15 for "N#Cc1c(N2CCN(c3ccc([N+](=O)[O-])cc3)CC2)[n+]([O-])c2ccc(-c3ccc([N+](=O)[O-])cc3)cc2[n+]1[O-]" , please.
> 85.5 µM

Observed GI50 on HCT-15 for CC1CC2(OC2C)C(=O)OC2CCN(C)C/C=C(/COC(=O)C1(C)O)C2=O (stereo not drawn) , please.
> 100 µM

Observed GI50 on HCT-15 for CCCCCCCCOC1C(O)C(O)C(O)C(O)C12CO2 (stereo not drawn) , please.
50.4 µM

Observed GI50 on HCT-15 for "Nn1c(S)nnc1COc1cccc(OCc2nnc(S)n2N)c1" , please.
58.7 µM

Observed GI50 on HCT-15 for O=C1Nc2ccccc2C1S(=O)(=O)c1ccccc1 (stereo not drawn) , please.
> 100 µM

Observed GI50 on HCT-15 for COC(=O)/C=C\COCC1C2CCC(=O)C21 (stereo not drawn) , please.
9.57 µM

Observed GI50 on HCT-15 for "Clc1ccc(CCn2ccc3ccccc32)c(Cl)c1" , please.
> 100 µM
